Target: USP7cd (USP7 catalytic domain) (Homo sapiens, UniProt Q93009)
Construct: USP7 catalytic domain (USP7CD) (208‐560); made in house
Sequence (Q93009 with tags, fused parts or gaps): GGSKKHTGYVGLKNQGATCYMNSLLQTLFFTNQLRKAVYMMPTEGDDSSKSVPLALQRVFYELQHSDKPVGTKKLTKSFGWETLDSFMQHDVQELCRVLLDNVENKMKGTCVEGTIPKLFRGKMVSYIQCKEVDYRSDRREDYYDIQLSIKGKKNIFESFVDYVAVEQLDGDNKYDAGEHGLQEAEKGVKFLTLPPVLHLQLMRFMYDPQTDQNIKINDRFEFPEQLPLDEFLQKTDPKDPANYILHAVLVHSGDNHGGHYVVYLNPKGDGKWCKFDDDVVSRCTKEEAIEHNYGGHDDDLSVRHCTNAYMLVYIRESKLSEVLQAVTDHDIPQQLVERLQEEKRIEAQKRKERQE
Assay: Ub-AMC enzyme activity assay, IC50 determination
Assay type: biochemical
Conditions: 10 nM USP7cd, 500 nM Ub-AMC, 24 h pre-incubation at 20°C; read-out: IC50 USP7cd
pIC50: −log10 of the molar value.

structure_string	target_system	pIC50
O=[N+]([O-])c1ccc(F)nc1Nc1cc2c(-c3ccc(-c4ccncc4)cc3)cccc2cn1	USP7cd (USP7 catalytic domain) (Homo sapiens, UniProt Q93009)	< 3.00

###

Biological target: USP7 (Homo sapiens, UniProt Q93009)
Construct: USP7 catalytic domain (USP7CD) (208‐560); made in house
Sequence (Q93009 with tags, fused parts or gaps): as above
Test: Differential scanning fluorimetry (DSF), melting temperature shift of USP7
Type: binding
Conditions: 8 µM protein, 250 µM compound (1:31.25), 4 h incubation at 20°C

structure_string	∆T m ± SD USP7
O=[N+]([O-])c1ccc(Cl)nc1Nc1cc2c(-c3ccc(-c4cccnc4)cc3)cccc2cn1	0.00 ± 0 °C

###

# ∆T m ± SD USP7 values compiled below
Biological target: USP7 (Homo sapiens, UniProt Q93009)
Construct: USP7 catalytic domain (USP7CD) (208‐560); made in house
Assay: Differential scanning fluorimetry (DSF), melting temperature shift of USP7
Assay type: binding
Details: 8 µM protein, 250 µM compound (1:31.25), 24 h incubation at 20°C
property_name: ∆T m ± SD USP7 (°C)

structure_string	property_name	endpoint_value
CCCn1cc(-c2cccc3cnc(Nc4nc(Cl)ccc4[N+](=O)[O-])cc23)cn1	∆T m ± SD USP7	0.25
Cn1ccc(-c2cccc3cnc(Nc4nc(F)ccc4[N+](=O)[O-])cc23)c1	∆T m ± SD USP7	0.00

###

Measured ∆T m ± SD USP7, listed per entry.
Biological target: USP7 (Homo sapiens, UniProt Q93009)
Construct: USP7 catalytic domain (USP7CD) (208‐560); made in house
Assay: Differential scanning fluorimetry (DSF), melting temperature shift of USP7
Format: binding
Settings: 8 µM protein, 250 µM compound (1:31.25), 4 h incubation at 20°C
Description: The influence of the synthesized compounds on the melting temperature (T m) of USP7 and its mutant USP7asoc (active site only cysteine) was investigated by DSF. […] DSF was selected for initial assessment since it is an efficient and rapid primary screening method readily available to our lab. An important consideration when assessing covalent inhibitors is the time dependence of covalent target occupancy and thus potency, which is determined by the reaction kinetics of the covalent binding event. […]

structure_string	∆T m ± SD USP7 / °C
Cn1cc(-c2cccc3cnc(Nc4nc(Cl)ccc4[N+](=O)[O-])cc23)cn1	0.45
O=[N+]([O-])c1ccc(Cl)nc1Nc1cc2c(-c3ccc4ccccc4c3)cccc2cn1	0.30
CCn1cc(-c2cccc3cnc(Nc4nc(Cl)ccc4[N+](=O)[O-])cc23)cn1	0.15
O=[N+]([O-])c1ccc(F)nc1Nc1cc2c(-c3cnn(C4CC4)c3)cccc2cn1	0.02
CCCn1cc(-c2cccc3cnc(Nc4nc(Cl)ccc4[N+](=O)[O-])cc23)cn1	0.30
Cn1ccc(-c2cccc3cnc(Nc4nc(F)ccc4[N+](=O)[O-])cc23)c1	0.00
O=[N+]([O-])c1ccc(F)nc1Nc1cc2c(-c3ccc(-c4cccnc4)cc3)cccc2cn1	0.15
O=[N+]([O-])c1ccc(F)nc1Nc1cc2c(-c3ccc4ccccc4c3)cccc2cn1	0.30
